- assay-target: TNFα trimer (Homo sapiens)
- assay-procedure: TNFα FP Competitive Binding Assay
- assay-context: FP binding assay; 20 nM TNFα trimer, 1 nM OregonGreen488 probe; read-out: TNF IC50
pIC50: −log10 of the molar value.
value-type: pIC50

Sample answers from the record:
compound	pIC50
CC(=O)N1CCN(c2ncc(-c3ccc4c(=O)n(C)n(Cc5cc(C)ccc5OC(F)F)c4c3)cn2)[C@H](C)C1 [Example 20.4]	> 6.00
CC(=O)N1CCN(c2ncc(-c3ccc4c(=O)n(C)n(Cc5cn(C(C)=O)cc5C(F)(F)F)c4c3)cn2)C[C@H]1C [Example 119]	> 6.00
C[C@@H]1CN(c2ncc(-c3ccc4c(=O)n(C)n(Cc5ccccc5Cl)c4c3C#N)cn2)CCN1C(=O)CO [Example 71]	5.00 to 6.00
CC(=O)N1CCN(c2ncc(-c3ccc4c(=O)n(C)n(Cc5ccc(C)cc5SC(F)F)c4c3)cn2)C[C@H]1C [Example 82]	> 6.00
Cn1c(=O)c2ccc(-c3cnc(C(C)(C)O)nc3)cc2n1Cc1cc(NC2CCCc3c[nH]nc32)ccc1Cl (centres unmarked) [Example 44]	> 6.00

Report pIC50 for each item below.
1. C[C@@H]1CN(c2ncc(-c3ccc4c(=O)n(C)n(Cc5ccccc5Cl)c4c3F)cn2)CCN1C(=O)CO [Example 24.5]
2. Cn1c(=O)c2ccc(-c3cnc(NC4CCNC(=O)C4)nc3)cc2n1Cc1cc(CO)ccc1OC(F)F (centres unmarked) [Example 16.5]
3. Cn1c(=O)c2ccc(-c3cnc(C(C)(C)O)nc3)cc2n1Cc1cc(NCc2cccnc2)ccc1Cl [Example 53]
4. Cn1c(=O)c2cc(F)c(-c3cnc(C(C)(C)O)nc3)cc2n1Cc1ccccc1OC(F)F [Example 40]
5. C[C@@H]1CN(c2ncc(-c3ccc4c(=O)n(C(F)F)n(Cc5ccccc5OC(F)F)c4c3)cn2)CCN1C(=O)CO [Example 24.4]
6. CC(c1cc(F)ccc1F)n1c2cc(-c3cnc(N4CCN(C(=O)CO)[C@H](C)C4)nc3)ccc2c(=O)n1C (some centres unmarked) [Example 24.7]
7. COCC(=O)N1CCN(c2ncc(-c3ccc4c(=O)n(C)n(Cc5cc(C)ccc5OC(F)F)c4c3)cn2)C[C@H]1C [Example 21.1]
8. CC[C@@H]1CN(C(C)=O)CCN1c1ncc(-c2ccc3c(=O)n(C)n(Cc4cc(C)ccc4OC(F)F)c3c2)cn1 [Example 20.5]

**A:**
["> 6.00", "> 6.00", "5.00 to 6.00", "5.00 to 6.00", "> 6.00", "> 6.00", "> 6.00", "> 6.00"]

**Q:** Reported pIC50 for CC(=O)N1CCN(c2ncc(-c3ccc4c(=O)n(C)n(Cc5cc(Cn6ccc(=O)[nH]6)ccc5OC(F)F)c4c3)cn2)C[C@H]1C [Example 101] : what is it?
**A:** 5.00 to 6.00

====

- assay-target: TNFα trimer (Homo sapiens, UniProt P01375)
- Sequence (P01375 77-233 limits assumed): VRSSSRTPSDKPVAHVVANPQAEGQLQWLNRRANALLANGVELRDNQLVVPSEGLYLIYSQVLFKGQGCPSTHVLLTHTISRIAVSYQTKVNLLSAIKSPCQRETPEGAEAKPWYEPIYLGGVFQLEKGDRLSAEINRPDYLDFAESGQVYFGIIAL
- assay-procedure: TNFα FP Competitive Binding Assay
- assay-context: FP binding assay; 20 nM TNFα trimer, 1 nM OregonGreen488 probe; read-out: TNF IC50
pIC50: −log10 of the molar value.
value-type: pIC50

Before answering, review these 10 worked examples.
compound	value-type	result
Cc1ccc(OC(F)F)c(Cn2c3cc(-c4cnc(C(C)(C)O)nc4C)ccc3c(=O)n2C)c1 [Example 22.5]	pIC50	> 6.00
Cn1c(=O)c2ccc(-c3cnc(N4CC[C@H](C(=O)O)C4)nc3)cc2n1Cc1ccccc1OC(F)F [Example 2.15]	pIC50	< 5.00
CC(C)[C@H](N)C(=O)OCC(=O)N1CCN(c2ncc(-c3ccc4c(=O)n(C)n(Cc5ccccc5OC(F)F)c4c3)cn2)C[C@H]1C [Example 14.12]	pIC50	> 6.00
CC(=O)N1CCN(c2ncc(-c3ccc4c(=O)n(C)n(Cc5cc(C)ccc5OC(F)F)c4c3)cn2)C[C@@H]1C (single isomer, unassigned) [Example 55]	pIC50	> 6.00
Cc1ccc(OC(F)F)c(Cn2c3cc(-c4cnc(N5CCN6C(=O)OC[C@@H]6C5)nc4)ccc3c(=O)n2C)c1 [Example 20.2]	pIC50	> 6.00
Cc1ccc(OC(F)F)c(Cn2c3cc(-c4cnc(C5(C)CCN(C)C5)nc4)ccc3c(=O)n2C)c1 (stereo not shown) [Example 88]	pIC50	5.00 to 6.00
Cn1c(=O)c2ccc(-c3cnc(N4CCOCC4)nc3)cc2n1Cc1c(Cl)cccc1Cl [Example 8.1]	pIC50	5.00 to 6.00
CC(=O)N1CCN(c2ncc(-c3ccc4c(=O)n(C)n(Cc5c(CC#N)cccc5OC(F)F)c4c3)cn2)C[C@H]1C [Example 49]	pIC50	> 6.00
Cn1c(=O)c2ccc(-c3cnc(NC4CCCCNC4=O)nc3)cc2n1Cc1ccccc1OC(F)F (stereo not shown) [Example 2.19]	pIC50	5.00 to 6.00
CC(=O)N1CCN(c2ncc(-c3ccc4c(=O)n(C)n(Cc5cc(CO)ccc5C(F)(F)F)c4c3)cn2)CC1 [Example 115]	pIC50	> 6.00

Each of the following entries comes with a recorded value; kindly state pIC50 for each.
1. Cn1c(=O)c2ccc(-c3cnc(N4CCN5C(=O)NC[C@@H]5C4)nc3)cc2n1Cc1ccccc1OC(F)F (single isomer, unassigned) [Example 6]
2. Cn1c(=O)c2ccc(-c3cnc(N4CCN5C(=O)NC[C@H]5C4)nc3)cc2n1Cc1c(Cl)ccc2c1COC2 [Example 29.4]
3. Cc1ccc(OC(F)F)c(Cn2c3cc(-c4cnc(N5CCN(C(=O)CN)[C@H](C)C5)nc4)ccc3c(=O)n2C)c1 [Example 14.10]

**A:**
1. > 6.00
2. > 6.00
3. > 6.00

Below are 6 compounds. Give each one its pIC50.
1. Cn1c(=O)c2ccc(-c3cnc(N4CC(C5COC5)C4)nc3)cc2n1Cc1ccccc1OC(F)F [Example 2.8]
2. Cn1c(=O)c2ccc(-c3cnc(N4CCOC(C)(C)C4)nc3)cc2n1Cc1ccccc1OC(F)F [Example 2]
3. CN1CCC(Nc2ncc(-c3ccc4c(=O)n(C)n(Cc5cc(CO)ccc5OC(F)F)c4c3)cn2)C1=O (stereo not shown) [Example 16.2]
4. C[C@H](N)C(=O)OCc1ccc(OC(F)F)c(Cn2c3cc(-c4cnc(N5CCN6C(=O)OC[C@@H]6C5)nc4)ccc3c(=O)n2C)c1 [Example 21]
5. CC(c1c(F)cccc1F)n1c2cc(-c3cnc(N4CCN(C(=O)CO)[C@H](C)C4)nc3)ccc2c(=O)n1C (stereo partly shown) [Example 28.1]
6. CN(C)C(=O)OCc1ccc(OC(F)F)c(Cn2c3cc(-c4cnc(N5CCN6C(=O)NC[C@@H]6C5)nc4)ccc3c(=O)n2C)c1 [Example 67]

**A:**
1. 5.00 to 6.00
2. > 6.00
3. 5.00 to 6.00
4. > 6.00
5. > 6.00
6. > 6.00

I have 6 compounds here; please give me pIC50 for each one.
1. Cc1ccc(OC(F)F)c(Cn2c3nc(-c4cnc(C(C)(C)O)nc4C)ccc3c(=O)n2C)c1 [Example 95]
2. CC(=O)N1CCN(c2ncc(-c3ccc4c(=O)n(C)n(Cc5nc(C)ccc5C(F)(F)F)c4c3)cn2)C[C@H]1C [Example 19.1]
3. Cn1cc(C(F)(F)F)c(Cn2c3cc(-c4cnc(N5CCN6C(=O)NC[C@H]6C5)nc4)ccc3c(=O)n2C)n1 [Example 72]
4. Cc1cc2c(=O)n(C)n(Cc3ccccc3OC(F)F)c2cc1-c1cnc(N2CCNC(=O)C2)nc1 [Example 13.2]
5. Cn1c(=O)c2ccc(-c3cnc(NCC4CNC(=O)C4)nc3)cc2n1Cc1ccccc1OC(F)F (stereo not shown) [Example 2.7]
6. Cn1c(=O)c2ccc(-c3cnc(C(C)(C)O)nc3)cc2n1Cc1cc(CC#N)ccc1OC(F)F [Example 26.8]

**A:**
["5.00 to 6.00", "> 6.00", "5.00 to 6.00", "5.00 to 6.00", "5.00 to 6.00", "5.00 to 6.00"]
